- tested_system: T1, human NMUR1 (human, UniProt Q9HB89 1-426)
- T1 sequence (looked up): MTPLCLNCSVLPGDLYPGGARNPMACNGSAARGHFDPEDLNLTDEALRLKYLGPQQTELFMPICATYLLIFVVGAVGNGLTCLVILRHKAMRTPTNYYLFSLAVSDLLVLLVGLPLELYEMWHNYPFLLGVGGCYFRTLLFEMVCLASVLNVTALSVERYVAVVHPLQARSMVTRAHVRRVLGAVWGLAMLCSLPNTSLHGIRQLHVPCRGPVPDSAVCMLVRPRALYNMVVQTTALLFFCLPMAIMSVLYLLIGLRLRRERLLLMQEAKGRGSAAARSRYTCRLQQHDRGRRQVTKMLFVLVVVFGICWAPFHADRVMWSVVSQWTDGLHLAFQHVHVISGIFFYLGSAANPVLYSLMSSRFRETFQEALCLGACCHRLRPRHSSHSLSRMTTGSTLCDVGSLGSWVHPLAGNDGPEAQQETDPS
- assay_text: cell-based or functional assay
Non-standard residues stand in square brackets, D forms with d. No end group written: not given here.
Mark 1 (yes) for reported % activity of 90% or greater; mark 0 (no) for anything smaller.

binder	cat
YFGWRPRN-NH2 [neuromedin U receptor agonist C]	0 (no)
YF[dL]WRPRN-NH2 (N-terminus assumed; SMILES CC(C)C[C@@H](NC(=O)[C@H](Cc1ccccc1)NC(=O)[C@@H](N)Cc1ccc(O)cc1)C(=O)N[C@@H](Cc1c[nH]c2ccccc12)C(=O)N[C@@H](CCCNC(=N)N)C(=O)N1CCC[C@H]1C(=O)N[C@@H](CCCNC(=N)N)C(=O)N[C@@H](CC(N)=O)C(N)=O) [neuromedin U receptor agonist B]	1 (yes)
Ac-F[dL]WRPRN-NH2 (SMILES CC(=O)N[C@@H](Cc1ccccc1)C(=O)N[C@H](CC(C)C)C(=O)N[C@@H](Cc1c[nH]c2ccccc12)C(=O)N[C@@H](CCCNC(=N)N)C(=O)N1CCC[C@H]1C(=O)N[C@@H](CCCNC(=N)N)C(=O)N[C@@H](CC(N)=O)C(N)=O) [neuromedin U receptor agonist E]	1 (yes)
YF[dA]WRPRN-NH2 (N-terminus assumed; SMILES C[C@@H](NC(=O)[C@H](Cc1ccccc1)NC(=O)[C@@H](N)Cc1ccc(O)cc1)C(=O)N[C@@H](Cc1c[nH]c2ccccc12)C(=O)N[C@@H](CCCNC(=N)N)C(=O)N1CCC[C@H]1C(=O)N[C@@H](CCCNC(=N)N)C(=O)N[C@@H](CC(N)=O)C(N)=O) [neuromedin U receptor agonist D]	1 (yes)

Origin of the recorded values: patent US20070244048A1
